meta.source: PubChem BioAssay

Molecular target: Neurogenic locus notch homolog protein 2 (Homo sapiens)
Experiment: Notch2 binders on small-molecule microarrays, primary screen, biochemical, small-molecule microarray, 635 nm fluorescence, stem cell growth factors (AID 1073)
Conditions: Notch2 binding, higher = more signal
Outcome: True for composite z-score of at least 0.2; False for anything lower.

| molecule | test target | category |
| --- | --- | --- |
| O=C(NN=C1C[C@@H](O)[C@@H](O)[C@@H]2[C@@H]3C(=O)N(c4ccc(F)cc4F)C(=O)[C@@H]3CC[C@H]12)OCc1ccccc1 | Neurogenic locus notch homolog protein 2 (Homo sapiens) | False |
| C=CC[C@@H]1C=CC(ON=C(C)C)[C@@H](CO)O1 (stereo not given in full) | Neurogenic locus notch homolog protein 2 (Homo sapiens) | False |
| CCOC(=O)[C@H](Cc1ccccc1)NC(=O)CCC1CC(OC(=O)NCCc2ccc(F)cc2)CC2(CCCC(COC(=O)NCCC(C)C)O2)O1 (stereo not given in full) | Neurogenic locus notch homolog protein 2 (Homo sapiens) | True |
| COC(=O)[C@@H]1CC[C@H](C)[C@@H](c2ccc(Br)cc2)N1C(=O)C(F)(F)F | Neurogenic locus notch homolog protein 2 (Homo sapiens) | False |
| CCN1C(=O)[C@H]2[C@H]3[C@H](O)[C@H](O)CC(=NO[C@@H](C)c4cc(-c5c(C)cc(C)cc5C)no4)[C@@H]3CC[C@H]2C1=O | Neurogenic locus notch homolog protein 2 (Homo sapiens) | True |
| O=C1[C@H]2[C@H]3[C@H](O)[C@H](O)CC(=NOC[C@@H](O)COCc4ccco4)[C@@H]3CC[C@H]2C(=O)N1Cc1ccccc1 | Neurogenic locus notch homolog protein 2 (Homo sapiens) | False |
| CO[C@H]1COC(=O)[C@H](C)COC(=O)[C@@H](OCc2ccccc2)C=C[C@@H]1C | Neurogenic locus notch homolog protein 2 (Homo sapiens) | False |
| CC(C)CN1CCc2nc(-c3ccccc3)c3c(c2C1)CO[C@@H](C)C3 | Neurogenic locus notch homolog protein 2 (Homo sapiens) | True |
| CC(C)=CCCC(C)=CCON=C1C[C@@H](O)[C@@H](O)[C@@H]2[C@@H]3C(=O)N(Cc4ccc5c(c4)OCO5)C(=O)[C@@H]3CC[C@H]12 | Neurogenic locus notch homolog protein 2 (Homo sapiens) | True |
| CCOC(=O)CCN1C(=O)[C@H]2[C@H]3[C@H](O)[C@H](O)CC(=O)[C@@H]3CC[C@H]2C1=O | Neurogenic locus notch homolog protein 2 (Homo sapiens) | True |
| COC(=O)CC=C[C@@H](C)[C@@H](C=NOC(C)CN1CCCc2nc(C)c(C)cc21)NS(=O)(=O)c1ccc(C)cc1 (stereo not given in full) | Neurogenic locus notch homolog protein 2 (Homo sapiens) | True |
| CCN1C(=O)[C@H]2[C@H]3[C@H](O)[C@H](O)CC(=NOC[C@@H](O)COCc4ccco4)[C@H]3CC[C@H]2C1=O | Neurogenic locus notch homolog protein 2 (Homo sapiens) | False |
| CC(C)[C@@H](OCc1ccccc1)[C@H](C)CON=C1[C@H]2CCn3c(=O)n(-c4ccccc4)c(=O)n3[C@H]2[C@H](O)[C@@H]2O[C@H]12 | Neurogenic locus notch homolog protein 2 (Homo sapiens) | True |
| CC(=O)OC[C@H]1O[C@@H](ON=C(C)CCC(=O)OC[C@H]2O[C@H](C#Cc3ccccc3)C=C[C@@H]2Oc2ccc(C)cc2)[C@H](OC(C)=O)[C@@H](OC(C)=O)[C@@H]1OC(C)=O | Neurogenic locus notch homolog protein 2 (Homo sapiens) | True |
| CCOC(=O)NN=C1C[C@@H](O)[C@@H](O)[C@@H]2[C@@H]3C(=O)N(c4ccc(F)cc4F)C(=O)[C@@H]3CC[C@H]12 | Neurogenic locus notch homolog protein 2 (Homo sapiens) | True |
